Reference source for all entries: paper PMC7481290

Kindly state Minimal inhibitory concentration MRSA^c for each of the entries shown.
Test system: Methicillin-resistant S. aureus USA 300
Type: cell-based, Staphylococcus aureus
Conditions: USA 300, 18 h
Non-standard residues stand in square brackets, D forms with d. Residues, ends and D or L forms follow the SMILES beside them. Gly(Nα-4-Cl-benzyl) = O=C(O)CNCc1ccc(Cl)cc1; N(4-Br-benzyl)Gly = O=C(O)CNCc1ccc(Br)cc1; Nphe = O=C(O)CNCc1ccccc1; Nlys = NCCCCNCC(=O)O
Answers are plain numbers, in µg/mL.

{"columns": ["COMPOUND", "TARGET_UNDER_TEST", "Minimal inhibitory concentration MRSA^c / µg/mL"],
 "data": [
  ["NCCCCNCC(=O)N(CC(=O)N(CCCCN)CC(=O)N(CC(=O)N(CCCCN)CC(=O)N(CC(=O)N(CCCCN)CC(=O)N(CC(=O)N(CCCCN)CC(=O)N(CC(N)=O)Cc1ccc(Cl)cc1)Cc1ccccc1)Cc1ccc(Cl)cc1)Cc1ccccc1)Cc1ccc(Cl)cc1 [Compound 25] (H-[Nlys][Gly(Nα-4-Cl-benzyl)][Nlys][Nphe][Nlys][Gly(Nα-4-Cl-benzyl)][Nlys][Nphe][Nlys][Gly(Nα-4-Cl-benzyl)]-NH2)", "Methicillin-resistant S. aureus USA 300", 16]
]}

Now take the following compound into account.
Recorded result, NCCCCNCC(=O)N(CC(=O)N(CCCCN)CC(=O)N(CC(=O)N(CCCCN)CC(=O)N(CC(=O)N(CCCCN)CC(=O)N(CC(N)=O)Cc1ccc(Br)cc1)Cc1ccc(Br)cc1)Cc1ccc(Br)cc1)Cc1ccc(Br)cc1 [Compound 13] (H-[Nlys][N(4-Br-benzyl)Gly][Nlys][N(4-Br-benzyl)Gly][Nlys][N(4-Br-benzyl)Gly][Nlys][N(4-Br-benzyl)Gly]-NH2) , Minimal inhibitory concentration MRSA^c: 2
